tested on: CAKI-1 renal; assay: NCI-60 one-dose screen, 48 h; conditions: 10 µM unless noted
The panel holds about 83,000 compounds, 20% with a hit somewhere; the sample as a whole holds those more often. Calls of active or inactive are those of the source. The calls were made as follows: active = growth percent below 10; inactive = the rest.
Your response should consist of one outcome taken from active, inactive

These recorded examples may help you get a feel for the data.
molecular_string | cat
Cc1nc2ccccc2c(/C=C/c2ccc(Br)cc2)c1C(=O)/C=C/c1ccccc1 | active
CN1CCN(Cc2ccc(NC(=O)c3cncc(C#Cc4c(N)ncc5ccccc45)c3)cc2C(F)(F)F)CC1 | active
C#CCOc1cccc(Nc2c(Cl)c(CCl)nc3ccc(Oc4ccccc4)cc23)c1 | inactive
COc1ccc(-c2cn(Cc3ccc4c(Br)cc(Br)c(O)c4n3)nn2)cc1 | inactive
CNC(=O)c1cc(Oc2ccc3nc(NC(=O)NC(C)C)sc3c2)ccn1 | inactive
COC(=O)c1sc(-c2ccc(C)cc2)cc1O | inactive
O=C(O)/C=C\C(=O)Nc1ccc2c(c1)Cc1cc(F)ccc1-2 | inactive
O=c1c2cccc3c(N4CCOCC4)ccc(c32)c2nc3ccccc3n12 | inactive

Assay result, entry O=C(/C=C/c1ccco1)c1ccc(Nc2ccnc3cc(Cl)ccc23)cc1 — outcome?
inactive

For CCCNNC(=O)c1ccc(CNC(=O)/C=C/c2ccccc2)cc1 , which call appears in the assay record?
inactive

----------
system: HCT-116 colon; experiment: NCI-60 one-dose screen, 48 h; settings: 10 µM unless noted
The panel holds about 83,000 compounds, 20% with a hit somewhere; the sample as a whole holds those more often. Active and inactive are the calls of the source. Rule for the calls: active = growth percent below 10; inactive = the rest.
Hello, when you answer, please use one of the following outcomes: active, inactive

Hi team, can someone confirm the assay call for O=C1/C(=C/c2cccc(Br)c2)COc2ccc(O)c(O)c21 ?
active

----------
system: MALME-3M melanoma; experiment: NCI-60 one-dose screen, 48 h (100 = growth as untreated, 0 = no growth, -100 = all killed); conditions: 10 µM unless noted
This is part of a sample that, as a whole, favours compounds with a hit. Of some 83,000 tested, about 20% had one in any assay.
Reported growth by item:
Reply with just the number (in %).

Study these solved cases before continuing.
compound | measurement_target | growth, %
Nc1nc(N)c2c(n1)NC(c1ccc3c(c1)OCO3)CC(c1cccc(Nc3ccncc3)c1)=N2 (centres undefined) | MALME-3M melanoma | 100
CCN1CCN(c2nc(NNC(=O)c3ccc(OC)cc3)nc(N3CCN(C(c4ccccc4)c4ccccc4)CC3)n2)CC1 | MALME-3M melanoma | -63.7
C(=N\Nc1nnc2n1N=C(c1ccccc1)CS2)/c1ccc(OCc2ccccc2)cc1 | MALME-3M melanoma | 125
CC/C(=C(/c1ccc(Cl)cc1)c1ccc(OCCN2CCCC2)cc1)c1ccccc1 | MALME-3M melanoma | 68.8
COc1ccc(C2=NN3C(C2)c2cc(Br)ccc2OC3c2ccncc2)cc1 (centres undefined) | MALME-3M melanoma | 94

Reported growth of CCCS(=O)(=O)Nc1cccc(Nc2ncnc3cc(NC(=O)CCl)ccc23)c1Cl : -79.2

Recorded result, CC(=O)c1c(/C=C/c2ccc(C)cc2)c2ccccc2[nH]c1=O , growth: 121

Looking up Cc1ccc2nc(/C=C/c3ccc(N(C)C)cc3)cc(C)c2c1 , I found its growth recorded as 39.8

Notebook: Nc1ncc(-c2ccc3ncnc(N4CCc5cc(F)c(Cl)cc54)c3c2)cc1C(F)(F)F , growth read as 13.6

The recorded growth for entry CN(C)CC1C(=O)O[C@H]2[C@H]1CC/C(COC(=O)NCc1ccc(Cn3c(=O)sn(CCCI)c3=O)cc1)=C\CC[C@@]1(C)O[C@@H]21 (some centres undefined) equals -75.6

The recorded growth for entry N#Cc1c(-c2ccc(F)cc2)cc(-c2cccc(Cl)c2)[nH]c1=O equals 70.1

Lab book: growth of COc1ccc(-c2csc(NC(=O)CSc3nc(C)cc(=O)[nH]3)n2)cc1 noted as 110

Just so you know, measured growth for CC(C)n1nc(-c2ccc3oc(N)nc3c2)c2c(N)ncnc21 came out at -40.7

For record COc1ccc(/C=N\NC(=O)c2ccc3nc(-c4ccc(Cl)cc4)[nH]c3c2)cc1 the listed growth is 6.53

Recorded growth (compound COc1cccc(CNc2nnc(C)c(C)n2)c1O ): 108

So for CC1(C)CC[C@]2(CO)CC[C@]3(C)C(=CC[C@@H]4[C@@]5(C)CCNCC(C)(C)[C@@H]5CC[C@]43C)[C@@H]2C1 , the logged growth turned out to be 63.1

COc1ccc(CNc2c3ccccc3nc3ccccc23)cc1OC yielded growth of 7.92

Record Cc1oc2ccc(O)c(CN3CCCCCC3)c2c1C(=O)Nc1ccc(C(F)(F)F)cc1 , field growth: 49.9

Measured growth of O=C(/C=C/c1ccc(Cl)cc1)c1ccc(-n2cc(CN3CCN(c4cc5c(cc4F)c(=O)c(C(=O)O)cn5C4CC4)CC3)nn2)cc1 : 84.8
